Each recorded value in this set is attributed to patent US8877778B2.

pKi: −log10 of the molar value.
Data export: pKi values recorded with human 5-HT2A receptor (Homo sapiens (Human), UniProt P28223).
Sequence (P28223 whole entry): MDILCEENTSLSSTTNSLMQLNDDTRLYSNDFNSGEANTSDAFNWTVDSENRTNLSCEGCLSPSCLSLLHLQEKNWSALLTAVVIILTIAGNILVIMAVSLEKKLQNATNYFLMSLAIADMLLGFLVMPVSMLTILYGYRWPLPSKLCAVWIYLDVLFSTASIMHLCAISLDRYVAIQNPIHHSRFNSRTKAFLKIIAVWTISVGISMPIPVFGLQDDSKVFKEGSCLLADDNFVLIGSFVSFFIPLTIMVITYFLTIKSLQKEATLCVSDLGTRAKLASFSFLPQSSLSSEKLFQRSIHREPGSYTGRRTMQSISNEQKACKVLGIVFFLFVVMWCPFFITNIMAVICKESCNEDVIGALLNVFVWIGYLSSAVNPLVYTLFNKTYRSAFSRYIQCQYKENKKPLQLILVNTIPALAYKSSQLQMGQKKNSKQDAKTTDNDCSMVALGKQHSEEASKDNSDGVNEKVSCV
endpoint label: pKi

compound: N#CCC(=O)N[C@H]1CC[C@H](CCN2CCC(c3cccc4c3CCO4)CC2)CC1 [Example 55]
tgt: human 5-HT2A receptor (Homo sapiens (Human), UniProt P28223)
endpoint label: pKi
recorded value: 7.41

compound: COCCC(=O)N[C@H]1CC[C@H](CCN2CCC(c3cccc4c3CCO4)CC2)CC1 [Example 6]
tgt: human 5-HT2A receptor (Homo sapiens (Human), UniProt P28223)
endpoint label: pKi
recorded value: 7.41

compound: CN1CCN(c2ccc(C(=O)N[C@H]3CC[C@H](CCN4CCC(c5cccc6c5CCO6)CC4)CC3)cc2)CC1 [Example 44]
tgt: human 5-HT2A receptor (Homo sapiens (Human), UniProt P28223)
endpoint label: pKi
recorded value: 8.08

compound: COCCC(=O)N[C@H]1CC[C@H](CCN2CCC(c3cccc4occc34)CC2)CC1 [Example 2]
tgt: human 5-HT2A receptor (Homo sapiens (Human), UniProt P28223)
endpoint label: pKi
recorded value: 8.15

compound: C/C=C/CC(=O)N[C@H]1CC[C@H](CCN2CCC(c3cccc4c3CCO4)CC2)CC1 [Example 85]
tgt: human 5-HT2A receptor (Homo sapiens (Human), UniProt P28223)
endpoint label: pKi
recorded value: 7.11

compound: O=C(N[C@H]1CC[C@H](CCN2CCC(c3cccc4c3CCO4)CC2)CC1)C1CCCOC1 (mixture of isomers) [Example 54]
tgt: human 5-HT2A receptor (Homo sapiens (Human), UniProt P28223)
endpoint label: pKi
recorded value: 7.67

compound: O=C(N[C@H]1CC[C@H](CCN2CCC(c3cccc4c3CCO4)CC2)CC1)c1ccc(-n2cccc2)cc1 [Example 90]
tgt: human 5-HT2A receptor (Homo sapiens (Human), UniProt P28223)
endpoint label: pKi
recorded value: 7.52

compound: CC#CC(=O)N[C@H]1CC[C@H](CCN2CCC(c3cccc4c3CCO4)CC2)CC1 [Example 86]
tgt: human 5-HT2A receptor (Homo sapiens (Human), UniProt P28223)
endpoint label: pKi
recorded value: 7.34

* * *

Data export: pKi values recorded with human 5-HT2A receptor (Homo sapiens (Human), UniProt P28223).
pKi: −log10 of the molar value.
endpoint label: pKi

compound: CC(=O)N[C@H]1CC[C@H](CCN2CCC(c3ccc(F)c4occc34)CC2)CC1 [Example 64]
tgt: human 5-HT2A receptor (Homo sapiens (Human), UniProt P28223)
recorded value: 7.48
//
compound: O=C(C[C@@H](O)C(F)(F)F)N[C@H]1CC[C@H](CCN2CCC(c3cccc4c3CCO4)CC2)CC1 [Example 36]
tgt: human 5-HT2A receptor (Homo sapiens (Human), UniProt P28223)
recorded value: 7.27
//
compound: O=C(N[C@H]1CC[C@H](CCN2CCC(c3cccc4c3CCO4)CC2)CC1)C1CCOCC1 [Example 7]
tgt: human 5-HT2A receptor (Homo sapiens (Human), UniProt P28223)
recorded value: 7.89
//
compound: COCC(=O)N[C@H]1CC[C@H](CCN2CCC(c3cccc4c3CCO4)CC2)CC1 [Example 14]
tgt: human 5-HT2A receptor (Homo sapiens (Human), UniProt P28223)
recorded value: 7.56
//
compound: O=C(N[C@H]1CC[C@H](CCN2CCC(c3cccc4c3CCO4)CC2)CC1)c1ccc(C(F)(F)F)cc1 [Example 57]
tgt: human 5-HT2A receptor (Homo sapiens (Human), UniProt P28223)
recorded value: 6.87
//
compound: O=C(N[C@H]1CC[C@H](CCN2CCC(c3cccc4c3CCO4)CC2)CC1)c1ccc(F)cc1 [Example 35]
tgt: human 5-HT2A receptor (Homo sapiens (Human), UniProt P28223)
recorded value: 7.85
//
compound: O=C(N[C@H]1CC[C@H](CCN2CCC(c3cccc4c3CCO4)CC2)CC1)c1ccc(N2CCOCC2)cc1 [Example 33]
tgt: human 5-HT2A receptor (Homo sapiens (Human), UniProt P28223)
recorded value: 7.75
//
compound: N#Cc1ccc(C(=O)N[C@H]2CC[C@H](CCN3CCC(c4cccc5c4CCO5)CC3)CC2)cc1 [Example 45]
tgt: human 5-HT2A receptor (Homo sapiens (Human), UniProt P28223)
recorded value: 7.65

* * *

Data export: Ki values recorded with human D3 receptor (Homo sapiens (Human), UniProt P35462).
Sequence (P35462 whole entry): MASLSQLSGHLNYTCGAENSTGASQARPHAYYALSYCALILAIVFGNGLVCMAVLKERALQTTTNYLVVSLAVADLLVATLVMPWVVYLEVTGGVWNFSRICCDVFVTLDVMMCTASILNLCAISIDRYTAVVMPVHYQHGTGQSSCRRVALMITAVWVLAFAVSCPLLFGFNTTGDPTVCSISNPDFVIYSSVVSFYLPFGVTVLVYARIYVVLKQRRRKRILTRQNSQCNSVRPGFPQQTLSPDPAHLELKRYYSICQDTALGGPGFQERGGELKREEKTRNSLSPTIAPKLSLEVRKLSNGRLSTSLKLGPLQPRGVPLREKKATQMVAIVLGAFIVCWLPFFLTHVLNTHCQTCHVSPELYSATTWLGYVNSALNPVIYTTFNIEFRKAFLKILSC

compound: O=C(N[C@H]1CC[C@H](CCN2CCC(c3cccc4c3CCO4)CC2)CC1)C1CCCO1 (mixture of isomers) [Example 53]
Ki, µM: 0.0415

compound: CS(=O)(=O)CC(=O)N[C@H]1CC[C@H](CCN2CCC(c3cccc4c3CCO4)CC2)CC1 [Example 15]
Ki, µM: 0.0049

compound: O=C(Cc1noc2ccccc12)N[C@H]1CC[C@H](CCN2CCC(c3cccc4c3CCO4)CC2)CC1 [Example 93]
Ki, µM: 0.00321

compound: O=C(N[C@H]1CC[C@H](CCN2CCC(c3cccc4c3CCO4)CC2)CC1)C1CC1 [Example 29]
Ki, µM: 0.0089

compound: COCC(=O)N[C@H]1CC[C@H](CCN2CCC(c3cccc4occc34)CC2)CC1 [Example 10]
Ki, µM: 0.0105

compound: O=C(CC1CCOCC1)N[C@H]1CC[C@H](CCN2CCC(c3cccc4c3CCO4)CC2)CC1 [Example 8]
Ki, µM: 0.0104

compound: Cc1cc(C(=O)N[C@H]2CC[C@H](CCN3CCC(c4cccc5c4CCO5)CC3)CC2)on1 [Example 41]
Ki, µM: 0.0108

compound: O=C(N[C@H]1CC[C@H](CCN2CCC(c3cccc4c3CCO4)CC2)CC1)c1ccc(C(F)(F)F)cc1 [Example 57]
Ki, µM: 0.0661

compound: O=C(N[C@H]1CC[C@H](CCN2CCC(c3cccc4c3CCO4)CC2)CC1)c1ccc2c(c1)OCO2 [Example 79]
Ki, µM: 0.0035

compound: O=CN[C@H]1CC[C@H](CCN2CCC(c3cccc4c3CCO4)CC2)CC1 [Example 87]
Ki, µM: 0.0115

compound: O=C(N[C@H]1CC[C@H](CCN2CCC(c3ccc(F)c4occc34)CC2)CC1)C1CCOCC1 [Example 65]
Ki, µM: 0.034

compound: O=C(N[C@H]1CC[C@H](CCN2CCC(c3cccc4occc34)CC2)CC1)C1CCOCC1 [Example 3]
Ki, µM: 0.0119

compound: O=C(Cc1ccc2c(c1)OCO2)N[C@H]1CC[C@H](CCN2CCC(c3cccc4c3CCO4)CC2)CC1 [Example 94]
Ki, µM: 0.00365

compound: O=C(N[C@H]1CC[C@H](CCN2CCC(c3cccc4c3CCO4)CC2)CC1)c1ccc(-c2ccccc2)cc1 [Example 91]
Ki, µM: 0.00781

compound: CC(C)(O)CC(=O)N[C@H]1CC[C@H](CCN2CCC(c3cccc4c3CCO4)CC2)CC1 [Example 72]
Ki, µM: 0.00633

compound: O=C(N[C@H]1CC[C@H](CCN2CCC(c3cccc4c3CCO4)CC2)CC1)C1CCOCC1 [Example 7]
Ki, µM: 0.0228

* * *

Ki values by entry
Biological target: human 5-HT2A receptor (Homo sapiens (Human), UniProt P28223)
endpoint label: Ki (nM)

compound: O=CN[C@H]1CC[C@H](CCN2CCC(c3cccc4c3CCO4)CC2)CC1 [Example 87]
recorded value: 107
--
compound: Cc1cc(CC(=O)N[C@H]2CC[C@H](CCN3CCC(c4cccc5c4CCO5)CC3)CC2)on1 [Example 19]
recorded value: 32.9
--
compound: O=C(N[C@H]1CC[C@H](CCN2CCC(c3cccc4c3CCO4)CC2)CC1)C1CC1(F)F (stereo partly shown) [Example 61]
recorded value: 51.9
--
compound: CC(C)(C)CC(=O)N[C@H]1CC[C@H](CCN2CCC(c3cccc4c3CCO4)CC2)CC1 [Example 59]
recorded value: 54.1

* * *

molecule: COCC(=O)N[C@H]1CC[C@H](CCN2CCC(c3cccc4c3CCO4)CC2)CC1
melting point (°C): 156

molecule: O=C(N[C@H]1CC[C@H](CCN2CCC(c3cccc4c3CCO4)CC2)CC1)c1ccc(N2CCOCC2)cc1
melting point (°C): 247

molecule: CC(=O)N[C@H]1CC[C@H](CCN2CCC(c3cccc4c3CCO4)CC2)CC1
melting point (°C): 183

molecule: O=C(N[C@H]1CC[C@H](CCN2CCC(c3cccc4c3CCO4)CC2)CC1)c1ccc(-c2ccccc2)cc1
melting point (°C): 241

molecule: O=C(N[C@H]1CC[C@H](CCN2CCC(c3cccc4c3CCO4)CC2)CC1)C1CCCOC1 (mixture of isomers)
melting point (°C): 222

molecule: N#Cc1ccc(C(=O)N[C@H]2CC[C@H](CCN3CCC(c4cccc5c4CCO5)CC3)CC2)cc1
melting point (°C): 230

molecule: O=C(C[C@H]1COCCO1)N[C@H]1CC[C@H](CCN2CCC(c3cccc4c3CCO4)CC2)CC1
melting point (°C): 190

molecule: O=C(CCO)N[C@H]1CC[C@H](CCN2CCC(c3cccc4c3CCO4)CC2)CC1
melting point (°C): 158
